measuredTarget: T1, CCL3_HUMAN (Homo sapiens, UniProt P10147)
T1 sequence (P10147 24-92): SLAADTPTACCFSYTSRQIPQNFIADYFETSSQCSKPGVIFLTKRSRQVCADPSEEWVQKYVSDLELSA
assayNotes: Biolayer interferometry (BLI) binding
readoutType: Kd (nM)

molecule	number
P985_AMBPA: tick CKBP, Amblyomma parvum (protein, listed as Amblyomma parvum) DEESEELGASTDVDYEELDANCTCPAPALTSTRNNKHYPLGCIYNCSSYNCTIPDGTPCYVLTLGEVKEHLQIGSTVPNCTCGLCRNGTCVSNGTVEECFAVEEIEET	8.9
P1243_AMBAM: tick CKBP, Amblyomma americanum; AAM-02 stated identical (protein, listed as Amblyomma americanum) RNHTEDNSTEYYDYEEARCACPARHLNNTNGTVLKLLGCHYFCNGTLCTAPDGYPCYNLTAQQVRTLTTYPNTSCAVGVCMKGTCVKNGTMEQCFKTP	5.3
P974_AMBCA: tick CKBP, Amblyomma cajennense; ACA-01 stated identical (protein, Amblyomma cajennense, tick CKBP, Amblyomma cajennense; ACA-01 stated identical) ENTQQEEQDYDYGTDTCPFPVLANKTNKAKFVGCHQKCNGGDQKLTDGTACYVVERKVWDRMTPMLWYECPLGECKNGVCEDLRKKEDCRKGNGEEK	7.97
